Reference source: patent US10689381B2

Test system: HCT116/VM46
testName: cells
Format: cell-based, human
measurementConditions: read-out: IC50 HCT116/VM46
Experimental: Compounds were tested for their cell growth inhibition of L1210 (ATCC no. CCL-219, mouse lymphocytic leukemia), HCT116 (ATCC no. CCL-247, human colorectal carcinoma), and HCT116/VM46 (a vinblastine-resistant strain of HCT116) cells in culture. A population of cells (>1×10^6 cells/mL as determined with a hemocytometer) was diluted with Dulbecco's Modified Eagle Medium (DMEM, Gibco) containing 10% fetal bovine serum (FBS, Gibco) to give a final concentration of 30,000 cells/mL. […]
valueType: IC50
Please format your answer as a value with the unit trailing.

{"molecule": "CC[C@]1(O)C[C@@H]2CN(CCc3c([nH]c4ccccc34)[C@@](C(=O)OC)(c3cc4c(cc3OC)N(C)[C@H]3[C@@](O)(C(=O)OC)[C@H](OC(C)=O)[C@]5(CC)C=CCN6CC[C@]43[C@@H]65)C2)C1 [Vinblastine (1), Vinblastine, reference compound]", "IC50": "600 nM"}
{"molecule": "CC[C@]1(NC(=O)c2ccc(C)c(C)c2)C[C@H]2CN(CCc3c([nH]c4ccccc34)[C@@](C(=O)OC)(c3cc4c(cc3OC)N(C)[C@H]3[C@@](O)(C(=O)OC)[C@H](OC(C)=O)[C@]5(CC)C=CCN6CC[C@]43[C@@H]65)C2)C1 [Compound 28]", "IC50": "7.6 nM"}
{"molecule": "CCC1(NC(=O)c2ccc3c(c2)CCCO3)CC2CN(CCc3c([nH]c4ccccc34)C(C(=O)OC)(c3cc4c(cc3OC)N(C)C3C(O)(C(=O)OC)C(OC(C)=O)C5(CC)C=CCN6CCC43C65)C2)C1 (stereo not shown) [Compound 173]", "IC50": "1.8 nM"}

Please turn your attention to the following entry.
The molecule identified as CCC1(NC=O)CC2CN(CCc3c([nH]c4ccccc34)C(C(=O)OC)(c3cc4c(cc3OC)N(C)C3C(O)(C(=O)OC)C(OC(C)=O)C5(CC)C=CCN6CCC43C65)C2)C1 (stereo not shown) [Compound 9] registered its IC50 at 7.5 nM
